Values were extracted from PubChem BioAssay (NCI).

- System: LXFL 529 NSCLC
- test-method-notes: NCI tumour cell line growth inhibition, 48 h

molecule: CCOc1ccc(NC(=O)CC2SC(N)=NC2=O)cc1 (centres undefined)
result-comparator: >
TGI [µM]: 100

molecule: C/C=C(/CCCCNCCCC)[Si](C)(C)C
result-comparator: =
TGI [µM]: 29.3

molecule: CSc1nc(-c2ccccc2)c2c(n1)-c1ccccc1CC2
result-comparator: >
TGI [µM]: 100

molecule: Cc1c2ccncc2c(C)c2c1[nH]c1ccc(OC(C)(C)C)cc12
result-comparator: =
TGI [µM]: 5.5

====

- Test system: SNB-19 CNS
- test-method-notes: NCI tumour cell line growth inhibition, 48 h
recorded-metric: TGI (µM)

molecule: COc1ccc2c(c1)C(=O)c1c-2n(CCCN2CCOCC2)c(=O)c2ccccc12
result-comparator: =
result-number: 30.9

molecule: CC1CC2(CC[C@@H]1O)OCCO2 (some centres not stated)
result-comparator: >
result-number: 100

molecule: CO[C@@H](c1ccccc1)[C@H](O)[C@](O)(c1ccccc1)P(=O)(OC)OC
result-comparator: >
result-number: 100

molecule: CCOC(=O)N1CCN(C(=O)Nc2cccc3ccccc23)CC1
result-comparator: >
result-number: 10

molecule: CC(=O)O[C@]12CCC[C@H]1C1(O)C(O)CCC[C@H]12 (some centres not stated)
result-comparator: >
result-number: 100

molecule: N#CC1C(N)=NNC12Nc1ccccc1N2 (configuration not stated)
result-comparator: =
result-number: 91

molecule: CCC1CN2CCc3cc(OC)c(OC)cc3C2CC1CC1c2cc(OC)c(OC)cc2CCN1C(=O)CNC(=O)OC(C)(C)C (configuration not stated)
result-comparator: =
result-number: 53.5

====

- Tested on: HT29 colon
- test-method-notes: NCI tumour cell line growth inhibition, 48 h
TGI for assorted compounds

compound: COc1ccc2c(c1)nc(N)c1c3cccnc3cn21
tested-target: HT29 colon
TGI: 1.88 µM
//
compound: CCOC(CCCN1CCC2(CC1)C(=O)N(C)CN2c1ccccc1)(OCC)c1ccc(F)cc1
tested-target: HT29 colon
TGI: 14 µM
//
compound: CCCCC[C@H]1C/C=C2/C(=O)C(Cl)=C[C@@H]2C/C=C\CCCC(=O)O[C@@H](CCCCC)C/C=C2/C(=O)C(Cl)=C[C@@H]2C/C=C\CCCC(=O)O1
tested-target: HT29 colon
TGI: 1.44 µM
//
compound: CCCCCCCC(=O)N/N=C/c1ccc(Sc2nccn2C)c([N+](=O)[O-])c1
tested-target: HT29 colon
TGI: 23.4 µM
//
compound: O=C(O)C/C(=C\c1ccccc1)C(=O)O
tested-target: HT29 colon
TGI: > 100 µM
//
compound: CC(C)[C@@H](COC(C)(C)C)N=CN1CCc2c([nH]c3ccccc23)C1
tested-target: HT29 colon
TGI: > 100 µM
//
compound: CC(C)=CCC/C(C)=C/Cc1c(O)ccc2c1[nH]c1cc(O)c(C)cc12
tested-target: HT29 colon
TGI: > 25 µM
//
compound: CC1=NN(C(=O)c2ccc(Cl)cc2)C(=O)/C1=C/c1cccc([N+](=O)[O-])c1
tested-target: HT29 colon
TGI: > 100 µM
//
compound: O=C(NCCNCCO)N/N=C/c1ccc([N+](=O)[O-])cc1
tested-target: HT29 colon
TGI: > 100 µM
//
compound: Nc1nc(OCc2ccccc2)nc2[nH]ncc12
tested-target: HT29 colon
TGI: 77.6 µM
//
compound: CC(Oc1ccc(OCC2CCCCC2)cc1)C(=O)N(CCO)CCO (stereo unspecified)
tested-target: HT29 colon
TGI: > 100 µM
//
compound: O=c1[nH]cc(OCC(F)(F)F)c(=O)[nH]1
tested-target: HT29 colon
TGI: > 100 µM
//
compound: OC(c1ccccc1)(c1ccccc1)c1cccnc1
tested-target: HT29 colon
TGI: > 100 µM
//
compound: N/N=C(\Cc1ccccc1)NN=C(N)N
tested-target: HT29 colon
TGI: > 100 µM
//
compound: FC(F)(F)C12C34C=CC5(CCC6(C=CC1(CC3)O6)C52C(F)(F)F)O4 (stereo unspecified)
tested-target: HT29 colon
TGI: > 100 µM
//
compound: O=C(CC(C(=O)c1ccsc1)c1ccccc1)c1cccs1 (stereo unspecified)
tested-target: HT29 colon
TGI: > 100 µM

====

- Test system: NCI-H23 lung
- test-method-notes: NCI tumour cell line growth inhibition, 48 h

molecule: NC(N)=NC(N)=Nc1c(F)c(F)c(F)c(F)c1F
tested-target: NCI-H23 lung
TGI: > 100 µM
//
molecule: CCOC(=O)C1(Cc2c[nH]c3ccccc23)C(O)CCCN1C(C)=O (stereo not drawn)
tested-target: NCI-H23 lung
TGI: > 100 µM
//
molecule: c1ccc2c(c1)CCN2CCc1c[nH]c2ccccc12
tested-target: NCI-H23 lung
TGI: > 10 µM

====

- Test system: SK-MEL-5 melanoma
- test-method-notes: NCI tumour cell line growth inhibition, 48 h
TGI for assorted molecules

molecule: CSc1nc(-c2ccccc2)c2c(n1)-c1ccccc1CC2
TGI: > 100 µM
--
molecule: COC1OC(COC(=O)NCCCCC(=O)C(F)(F)F)C(O)C(O)C1O (stereo not given)
TGI: > 100 µM
--
molecule: CC1CC[C@@]2(OC1)OC1C[C@H]3[C@@H]4CC[C@H]5CC(OC6OC(CO)C(OC7OC(CO)C(O)C(O)C7O)C(O)C6O)CCC5(C)[C@H]4CCC3(C)C1[C@@H]2C (stereo not given in full)
TGI: 16.1 µM
--
molecule: Nc1ccc(S(=O)(=O)c2ccc(NC(=O)c3cccnc3)cc2)cc1
TGI: > 100 µM
--
molecule: COc1ccccc1-c1c(C)nn2c(NCc3ccccn3)cc(C)nc12
TGI: 49.6 µM
--
molecule: CN(C)c1ccc(C(N)=O)cn1
TGI: > 100 µM
--
molecule: COC1CC(n2cnc3c(N)ncnc32)OC1CO (stereo not given)
TGI: > 100 µM
--
molecule: O=C(NCCNCCO)N/N=C/c1ccc([N+](=O)[O-])cc1
TGI: > 100 µM
--
molecule: O=C1c2ccccc2C(=O)C1C(c1ccc([N+](=O)[O-])cc1)C1C(=O)c2ccccc2C1=O
TGI: > 100 µM
--
molecule: CCOC(=O)C1(Cc2c[nH]c3ccccc23)C(O)CCCN1C(C)=O (stereo not given)
TGI: > 100 µM

====

- System: SW-620 colon
- test-method-notes: NCI tumour cell line growth inhibition, 48 h
recorded-metric: TGI

molecule: O=C1C(=O)N(C2C3CC4CC(C3)CC2C4)C(=O)C(=O)C1c1nc2ccccc2o1 (configuration not stated)
tested-target: SW-620 colon
result: > 100 µM
--
molecule: Fc1ccc(Nc2nc(NCCNc3ccnc4cc(Cl)ccc34)nc(N3CCOCC3)n2)cc1
tested-target: SW-620 colon
result: 16.4 µM
--
molecule: CO[C@@H](c1ccccc1)[C@H](O)[C@](O)(c1ccccc1)P(=O)(OC)OC
tested-target: SW-620 colon
result: > 100 µM
--
molecule: CC(C)=CC(=O)CC(=O)C(=O)Nc1ccc(Cl)c(Cl)c1
tested-target: SW-620 colon
result: > 100 µM
--
molecule: Cn1cc(-c2ccc3c(c2)CCN3C(=O)Cc2cccc(C(F)(F)F)c2)c2c(N)ncnc21
tested-target: SW-620 colon
result: 20.8 µM
--
molecule: O=C1CCc2cc3c(cc21)CC1(Cc2ccccc2C1)C3
tested-target: SW-620 colon
result: > 100 µM
--
molecule: C=C(C)CCC(C)N1CCC(N2CCC(C(=O)NCCc3ccccc3)CC2)CC1 (configuration not stated)
tested-target: SW-620 colon
result: > 100 µM
--
molecule: CCc1cc2c(cc1CCCC(=O)O)CC1(Cc3ccc(C(=O)O)cc3C1)C2 (configuration not stated)
tested-target: SW-620 colon
result: > 100 µM
--
molecule: O=C1CCC2(c3ccccc3)Nc3cc(Cl)ccc3N12 (configuration not stated)
tested-target: SW-620 colon
result: > 100 µM
--
molecule: NCCCc1ccc2oc3ccccc3c2c1
tested-target: SW-620 colon
result: 50.3 µM
--
molecule: C1=NCCOCCN=Cc2ccccc2OCc2cccc(n2)COc2ccccc21
tested-target: SW-620 colon
result: > 25 µM
--
molecule: CCC1CN2CCc3cc(OC)c(OC)cc3C2CC1CC1c2cc(OC)c(OC)cc2CCN1C(=O)CNC(=O)OC(C)(C)C (configuration not stated)
tested-target: SW-620 colon
result: 29.1 µM

====

- Test system: RXF 393 renal
- test-method-notes: NCI tumour cell line growth inhibition, 48 h
TGI for assorted molecules
recorded-metric: TGI

molecule: O=C1C=CC(=O)c2c(O)c(N[C@@H](Cc3ccccc3)C(=O)OCc3ccccc3)c(Cl)c(O)c21
result: > 10 µM
//
molecule: Cc1cc(NS(=O)(=O)c2ccc(Nc3c4ccccc4nc4ccc(C(=O)Nc5ccc(S(=O)(=O)N=C(N)N)cc5)cc34)cc2)no1
result: > 100 µM
//
molecule: C=C(C)CCC(C)N1CCC(N2CCC(C(=O)NCCc3ccccc3)CC2)CC1 (stereo not drawn)
result: 43 µM
//
molecule: C=C(Br)CN(CC(=C)Br)C(C)=O
result: > 100 µM
//
molecule: CCSc1nc(COC(=O)NC)c(COC(=O)NC)n1C
result: 78.5 µM
//
molecule: CC(=O)O[C@]12CCC[C@H]1C1(O)C(O)CCC[C@H]12 (stereo partly drawn)
result: > 100 µM
//
molecule: C=CC12CN(C)C3C4COC(CC41)C1(C(=O)Nc4ccccc41)C32 (stereo not drawn)
result: > 200 µM
//
molecule: NC1CNC(=O)c2cscc21 (stereo not drawn)
result: > 100 µM
//
molecule: CC1CC2(CC[C@@H]1O)OCCO2 (stereo partly drawn)
result: > 100 µM
//
molecule: C/C(=N\NC(N)=O)C(CN(C)C)C(c1ccccc1)c1c(O)c2ccccc2oc1=O (stereo not drawn)
result: > 100 µM
//
molecule: COc1cc(/C=C(/c2ccccc2)[N+](=O)[O-])c(OC)c2c1OCO2
result: 2.85 µM
//
molecule: Clc1ccc2nc(Oc3ccccc3)cnc2c1
result: > 100 µM
//
molecule: COc1ccc2c(c1)nc(N)c1c3cccnc3cn21
result: 0.0777 µM
//
molecule: Cc1ccc(-c2n[nH]c(=O)[nH]2)cc1
result: > 100 µM
//
molecule: O=C(NN1C(=O)CSC1c1ccc(Cl)cc1)c1[nH]c2ccc(F)cc2c1-c1ccccc1 (stereo not drawn)
result: 15.4 µM
//
molecule: COc1cc(/C=C/C2=NN(c3cccc(S(=O)(=O)O)c3)C3(C2)C(Cl)C(=O)N3c2nc3ccccc3s2)ccc1O (stereo not drawn)
result: > 100 µM
//
molecule: CCOC(CCCN1CCC2(CC1)C(=O)N(C)CN2c1ccccc1)(OCC)c1ccc(F)cc1
result: 34.6 µM
//
molecule: NC1=Nc2ccccc2Sc2nnc(-c3ccc(Cl)cc3)n21
result: > 100 µM
